system_name: human Oxytocin-1 (hOT) receptor (Homo sapiens)
experiment_summary: Determination of antagonist affinity at human Oxytocin-1 receptors using FLIPR (Assay 1)
assay_setup: CHO-hOT cells, [Ca2+]i response to oxytocin (EC80); mean, n>=3; read-out: hOT FLIPR fpKi mean
pKi: −log10 of the molar value.
molecules and their reported pKi

These solved cases illustrate the format of a correct answer.
> print(dat)
                                   molecule  measured.value
1  CCC(CC)[C@@H]1C(=O)N[C@H](C2Cc3ccccc3C2)C(=O)N1[C@@H](C(=O)N(C)C)c1ccc(C)nc1    8.80 to 9.30
2  CCC(CC)[C@@H]1C(=O)N[C@H](C2Cc3ccccc3C2)C(=O)N1[C@@H](C(=O)N1CCOCC1)c1coc(C)n1    8.80 to 9.30
3  CCC(CC)[C@@H]1C(=O)N[C@H](C2Cc3ccccc3C2)C(=O)N1[C@@H](C(=O)N(C)C)c1ccc(C)nc1C    8.80 to 9.30
4  CCC(CC)[C@@H]1C(=O)N[C@H](C2Cc3ccccc3C2)C(=O)N1[C@@H](C(=O)NC)c1ccc(C)nc1C    8.80 to 9.30
5  CCC(CC)[C@@H]1C(=O)N[C@H](C2Cc3ccccc3C2)C(=O)N1[C@@H](C(=O)NC)c1ccc2c(cnn2C)c1          ≥ 9.40
6  Cc1ccc([C@H](C(=O)N(C)C)N2C(=O)[C@@H](C3Cc4ccccc4C3)NC(=O)[C@H]2CC(C)C)cn1 [Comparator X, reference compound]    7.60 to 8.10

Lab entry: human Oxytocin-1 (hOT) receptor (Homo sapiens) assay, molecule Cc1nc([C@H](C(=O)N2CCOCC2)N2C(=O)[C@@H](C3Cc4ccccc4C3)NC(=O)[C@H]2CC(C)C)co1 [Comparator Y, reference compound] , pKi = 7.00 to 7.50

Lab entry: human Oxytocin-1 (hOT) receptor (Homo sapiens) assay, molecule "CCC(CC)[C@@H]1C(=O)N[C@H](C2Cc3ccccc3C2)C(=O)N1[C@@H](C(=O)N1CCOCC1)c1ccc(C)nc1C" , pKi = ≥ 9.40

###

system_name: human Oxytocin-1 (hOT) receptor (Homo sapiens, UniProt P30559)
Construct: expressed in transfected cells
Sequence (P30559 1-389): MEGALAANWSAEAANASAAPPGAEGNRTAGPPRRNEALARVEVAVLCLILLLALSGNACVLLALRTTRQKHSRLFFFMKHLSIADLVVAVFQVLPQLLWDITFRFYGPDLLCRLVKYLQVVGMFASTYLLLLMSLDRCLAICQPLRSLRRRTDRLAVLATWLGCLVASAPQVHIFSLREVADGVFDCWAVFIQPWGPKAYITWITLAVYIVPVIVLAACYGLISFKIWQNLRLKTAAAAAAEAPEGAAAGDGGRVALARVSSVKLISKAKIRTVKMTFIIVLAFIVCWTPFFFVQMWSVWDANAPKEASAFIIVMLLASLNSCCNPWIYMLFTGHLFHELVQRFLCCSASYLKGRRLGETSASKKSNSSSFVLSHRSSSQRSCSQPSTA
experiment_summary: Determination of antagonist affinity at human Oxytocin-1 receptors using FLIPR (Assay 1)
Assay type: cell-based
assay_setup: CHO-hOT cells, [Ca2+]i response to oxytocin (EC80); mean, n>=3; read-out: hOT FLIPR fpKi mean
pKi: −log10 of the molar value.
measured_quantity: pKi

These solved cases illustrate the format of a correct answer.
> print(dat)
                                   compound  measured.value
1  CCC(CC)[C@@H]1C(=O)N[C@H](C2Cc3ccccc3C2)C(=O)N1[C@@H](C(=O)NC)c1ccc(C)nc1 [Example 1]    8.20 to 8.70
2  CCC(CC)[C@@H]1C(=O)N[C@H](C2Cc3ccccc3C2)C(=O)N1[C@@H](C(=O)N(C)C)c1ccc2c(cnn2C)c1 [Example 7]          ≥ 9.40

Now for a further compound.
Lab note: CCC(CC)[C@@H]1C(=O)N[C@H](C2Cc3ccccc3C2)C(=O)N1[C@@H](C(=O)N1CCOCC1)c1ccc2c(cnn2C)c1 [Example 8] gave pKi of ≥ 9.40

Data origin: patent US20070185162A1
